- target-desc: T1, Pex13, P80667
- T1 sequence (P80667 295-386, looked up): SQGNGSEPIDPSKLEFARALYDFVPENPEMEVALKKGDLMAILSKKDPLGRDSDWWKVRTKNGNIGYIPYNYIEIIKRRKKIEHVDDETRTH
- assay-details: SPOT array
- conditions-used: median of control spots 1341
endpoint: SPOT intensity

See these solved cases before continuing.
> print(dat)
            binder        endpoint  assay.value
1  QFDLKMPSKPIHNLK  SPOT intensity           95
2  MPAPPPPPPPPPGAF  SPOT intensity            0
3  RKLRTVPGVPLIHLT  SPOT intensity            4
4  VTHRLRISIPGITGR  SPOT intensity           20
5  APPPPPRRATPEKKP  SPOT intensity           68

A: QQNRPLPQLPNRNNR
B: TPRLSLPRLPNKHHW
C: LSKRLPLRFPEHTSS
D: QNTPPLPPKPKSPHL
E: RHLKLVPSTPMDIPW
Put these in order: smallest SPOT intensity first, largest last. # the answer lists labels in the order requested C, B, E, D, A
(C: 3, B: 45, E: 99, D: 309, A: 589)

a: HVRRSILALPLGVLL
b: ITHRLRISIPGITGR
Identify the entry with the larger SPOT intensity. Options: a and b Could you answer with the label of the item you picked? b

a: QQEQNTPPLPPKPKS
b: KRKRFNLLLPKPYLT
Of a and b , which shows the smaller SPOT intensity value? Could you answer with the label of the item you picked? b
